Test system: P12-Ichikawa
Assay: cell viability relative to DMSO control; higher = less cytotoxic
Settings: RPMI 5 mM glucose + 10% FBS; 48 h; 0.0211 µM
Reported cell viability values are given for each entry in this list.
Entry rule: numbers only, all in %.

C/C(O)=C(\C#N)C(=O)Nc1cc(Br)ccc1Br	108

Enquiry: Specify the recorded cell viability for "CN(C)c1nc(Cc2ccc(NC(=O)c3ccc4ccccc4c3)cc2)nc(Cl)c1CC(=O)O" , system: P12-Ichikawa.
Return: 115

Enquiry: Send back P12-Ichikawa cell viability of "Cc1[nH]c(/C=C2\C(=O)Nc3ccccc32)c(C)c1CCC(=O)O" only.
Return: 110

* * *

System: SEM cells
Assay: cell viability relative to DMSO control; higher = less cytotoxic
Settings: RPMI 5 mM glucose + 10% FBS; 48 h; 15.4 µM
VALUE_KIND: cell viability (%)
Dear colleague, please return just the value in %, with no unit written.

Enquiry: Input O=C(O)COCCN1CCN(C(c2ccccc2)c2ccc(Cl)cc2)CC1 (configuration not stated) , output reported cell viability.
Return: 112

* * *

Tested on: P12-Ichikawa
Experiment: cell viability relative to DMSO control; higher = less cytotoxic
Settings: HPLM + 10% dialyzed FBS; 48 h; 0.0211 µM
Measured cell viability by item
The reply should be a number in %, with the unit left off.

CN[C@@H](C)C(=O)N[C@H]1CN(C(=O)CC(C)C)CC[C@H]2CC[C@@H](C(=O)NC(c3ccccc3)c3ccccc3)N2C1=O	111
Cc1cc(Nc2nc(N[C@@H](C)c3ccc(F)cc3)c(C#N)cc2F)n[nH]1	105
Cc1cnc(C(=O)O)c[n+]1[O-]	115
CC[C@]12\C=C/CN3CC[C@]4([C@@H](N(C)C5=CC(=C(C=C45)[C@]6(C[C@H]7C[C@H](CN(C7)CC8=C6[NH]C9=C8C=CC=C9)C(C)(F)F)C(=O)OC)OC)[C@](O)([C@@H]1OC(C)=O)C(=O)OC)[C@H]23	69.4
CC/1=C(/C(CC(=O)N1)C2=CC=C(C=C2)C(F)(F)F)C(=O)NC3=C(F)C=C4[NH]N=CC4=C3 (stereo not drawn)	102

Enquiry: Quote cell viability reported for "Nc1nnc(-c2cccc(Cl)c2Cl)c(N)n1" please.
Return: 10.7

Enquiry: Query cell viability for "CNC[C@H](O)c1cccc(O)c1"
Return: 12.5

Enquiry: Output cell viability of CN1c2ccccc2C(=O)N2CCc3c([nH]c4ccccc34)C21 (stereo not drawn)
Return: 123

* * *

Tested on: NOMO1
Assay: cell viability relative to DMSO control; higher = less cytotoxic
Details: RPMI 5 mM glucose + 10% FBS; 48 h; 46.1 µM
Some molecules, each annotated with its measured cell viability.
Return type: number; implicit unit %.

Sample answers from the record:
CO/C1=C/C(C)=C\[C@@H](C)[C@@H](O)[C@@H](C)C/C(C)=C\C=C/[C@H](OC)[C@@H]([C@@H](C)[C@@H](O)[C@H](C)[C@@]2(O)C[C@@H](O)[C@H](C)[C@@H](C(C)C)O2)OC1=O	7.13
CN1\C(=C(\O)C2=C(C=CC=C2)[S+]1([O-])=O)C(=O)NC3=CC=CC=N3	21.2
Cc1cc(Nc2cc(CN3CCOCC3)c3nc(C)c(Cc4ccc(Cl)cc4F)n3n2)[nH]n1	28.2

Enquiry: Name the recorded cell viability of the item "O=C(c1ccc(F)c(F)c1Nc1ccc(I)cc1F)N1CC(O)([C@@H]2CCCCN2)C1" in your answer.
Return: 5.28

Enquiry: Query cell viability for "COC/1=C/C=C2\C(=C/C1=O)[C@H](CCC3=CC(=C(OC)C(=C23)OC)OC)NC(C)=O"
Return: 2.76

Enquiry: Return cell viability for the following molecule: "COc1ccc(Nc2nccc(NCCO)n2)cc1"
Return: 91.8

* * *

Test system: SEM cells
Assay: cell viability relative to DMSO control; higher = less cytotoxic
Details: RPMI 5 mM glucose + 10% FBS; 48 h; 0.0632 µM
Consider the following compounds and their measured cell viability readings.
Entry rule: numbers only, all in %.

Sample answers from the record:
NC(=O)c1cccc2cn(-c3ccc([C@@H]4CCCNC4)cc3)nc12	102
COc1ncnc(N[S+](=O)([O-])c2ccc(N)cc2)c1OC	101
CC1(C)CNc2cc(NC(=O)c3cccnc3NCc3ccncc3)ccc21	79.7

Enquiry: Please report cell viability with SEM cells for item "Cc1csc(NC(=O)c2sc3nc4c(c(C(F)(F)F)c3c2N)CCC4)n1" .
Return: 92.2

Enquiry: // fetch cell viability; item: "CCC\C1=C\C(=O)NC(=S)N1" ; system: SEM cells
Return: 121

Enquiry: Report its cell viability with SEM cells as the test system: "COc1ccc2c(c1)c(CC(=O)OCC(=O)O)c(C)n2C(=O)c1ccc(Cl)cc1"
Return: 113

* * *

Tested on: P12-Ichikawa
Experiment: AUC of viability dose-response curve (% viability x log10 dose units); higher = less sensitive
Details: RPMI 5 mM glucose + 10% FBS; 48 h
The compounds listed here are annotated with their AUC of viability dose-response curve.
Could you keep your reply to the number by itself?

Completed entries (count: 5):
COc1ccc2c(c1)c(CC(=O)O)c(C)n2C(=O)c1ccc(Cl)cc1	466
CC(C)(C)c1cnc(CSc2cnc(NC(=O)C3CCNCC3)s2)o1	321
Cc1cc(Nc2cc(CN3CCOCC3)c3nc(C)c(Cc4ccc(Cl)cc4F)n3n2)[nH]n1	428
COc1ncnc(N[S+](=O)([O-])c2ccc(N)cc2)c1OC	320
CN(C)CCOc1ccc(-c2nc(-c3ccncc3)c(-c3ccc4c(c3)CC/C4=N\O)[nH]2)cc1	454

Enquiry: Let me know recorded AUC of viability dose-response curve for C=CC(=O)Nc1cccc(Nc2nc(NC3CCC(N(C)C)CC3)nc3c2ncn3C(C)C)c1 (centres undefined) , thanks.
Return: 366

Enquiry: Given "CCOC(=O)c1cncn1[C@H](C)c1ccccc1" , respond with its AUC of viability dose-response curve.
Return: 452

Enquiry: Name the recorded AUC of viability dose-response curve of the compound listed here: "CN1\N=C(N)/C2=C[N]([C@@H]3O[C@H](CO[P](O)(O)=O)[C@@H](O)[C@H]3O)C4=C2C1=NC=N4"
Return: 329

Enquiry: Give the value of AUC of viability dose-response curve reported for the following: "COCCOc1nc(-c2ccc(Cl)c(Cl)c2)n(-c2ccc(NC(=O)CCl)cc2)n1"
Return: 450

Enquiry: Read off the recorded AUC of viability dose-response curve for "CC[C@@]1(O)C(=O)OCC/2=C1/C=C3\N(CC4=CC5=CC(=CC=C5N=C34)O)C2=O"
Return: 176

* * *

System: P12-Ichikawa
Test: cell viability relative to DMSO control; higher = less cytotoxic
Conditions: HPLM + 10% dialyzed FBS; 48 h; 1.71 µM
# cell viability annotations
Provide the reading as a plain figure in %.

Below: 6 compounds and their reported cell viability.
NC(=O)c1cccc2cn(-c3ccc([C@@H]4CCCNC4)cc3)nc12	106
COc1cc([C@H]2Oc3cc([C@H]4Oc5cc(O)cc(O)c5C(=O)[C@@H]4O)ccc3O[C@@H]2CO)ccc1O	110
CN[C@@H]1Cc2cccc3[nH]c(=O)n(c23)C1	117
COc1ccc([C@@H]2CC(=O)c3c(O)cc(O[C@@H]4O[C@H](CO[C@@H]5O[C@@H](C)[C@H](O)[C@@H](O)[C@H]5O)[C@@H](O)[C@H](O)[C@H]4O)cc3O2)cc1O	116
COc1ncnc(N[S+](=O)([O-])c2ccc(N)cc2)c1OC	72
CO/C1=C/C(C)=C\[C@@H](C)[C@@H](O)[C@@H](C)C/C(C)=C\C=C/[C@H](OC)[C@@H]([C@@H](C)[C@@H](O)[C@H](C)[C@@]2(O)C[C@@H](O)[C@H](C)[C@@H](C(C)C)O2)OC1=O	34.8

Please examine the following record next.
Enquiry: Assign cell viability to the following record: "N#Cc1ccnc(Nc2cc(C3CCN(C4COC4)CC3)cc(N3CCC(F)(F)C3)n2)c1"
Return: 108

* * *

# cell viability annotations
Tested on: SEM cells
Assay: cell viability relative to DMSO control; higher = less cytotoxic
Settings: RPMI 5 mM glucose + 10% dialyzed FBS; 48 h; 0.19 µM
Supply the numeric figure in %, leaving out any unit text.

The cases that follow already have their cell viability on record.
COC(=O)C1C2CC3c4[nH]c5cc(OC)ccc5c4CCN3CC2CC(OC(=O)c2cc(OC)c(OC)c(OC)c2)C1OC (stereo not drawn)	134
COC1=CC=C(C=C1O)C/2=C/C(=O)C3=C(O2)C=C(O)C=C3O	87.7
COc1cccc([C@@H](C)NCCCc2ccccc2Cl)c1	114

Enquiry: Read off the recorded cell viability for "C[S+](=O)([O-])c1ccc(-c2cnc(N)c(C(=O)Nc3ccccc3)n2)cc1"
Return: 111

Enquiry: State its cell viability: "Cc1cnc(C(=O)O)c[n+]1[O-]"
Return: 126
